target: UP1 D42R/R146A (human, UniProt P09651 1-196, D42R;R146A); test: ITC; text: could not bind RNA at all (conflicts with table); ITC: 20 mM Tris-HCl pH 7.5, 150 mM NaCl, 20 C; protein 160 uM in syringe, RNA 10 uM in cell; settings: protein: recombinant; tags: C-terminal His6; single strand; crystal has 2 antiparallel strands
Sequence (P09651 1-196 D42R/R146A): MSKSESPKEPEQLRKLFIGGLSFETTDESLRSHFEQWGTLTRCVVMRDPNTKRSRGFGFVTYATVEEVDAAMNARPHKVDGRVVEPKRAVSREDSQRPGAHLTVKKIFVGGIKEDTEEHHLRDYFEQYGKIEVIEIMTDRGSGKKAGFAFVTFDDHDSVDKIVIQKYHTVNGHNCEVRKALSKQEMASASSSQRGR
Outcome measure: pKd
Note on pKd: it is the negative log10 of concentration, concentration in mol/L.

Quick note, pKd for UUAGGGUUAGGG (ssRNA) [TERRA (UUAGGG)2] landed at 5.65
